Answer each item with its documented pIC50.
Biological target: Tyrosine-protein phosphatase non-receptor type 12 (Homo sapiens)
Sequence (Q05209 whole entry): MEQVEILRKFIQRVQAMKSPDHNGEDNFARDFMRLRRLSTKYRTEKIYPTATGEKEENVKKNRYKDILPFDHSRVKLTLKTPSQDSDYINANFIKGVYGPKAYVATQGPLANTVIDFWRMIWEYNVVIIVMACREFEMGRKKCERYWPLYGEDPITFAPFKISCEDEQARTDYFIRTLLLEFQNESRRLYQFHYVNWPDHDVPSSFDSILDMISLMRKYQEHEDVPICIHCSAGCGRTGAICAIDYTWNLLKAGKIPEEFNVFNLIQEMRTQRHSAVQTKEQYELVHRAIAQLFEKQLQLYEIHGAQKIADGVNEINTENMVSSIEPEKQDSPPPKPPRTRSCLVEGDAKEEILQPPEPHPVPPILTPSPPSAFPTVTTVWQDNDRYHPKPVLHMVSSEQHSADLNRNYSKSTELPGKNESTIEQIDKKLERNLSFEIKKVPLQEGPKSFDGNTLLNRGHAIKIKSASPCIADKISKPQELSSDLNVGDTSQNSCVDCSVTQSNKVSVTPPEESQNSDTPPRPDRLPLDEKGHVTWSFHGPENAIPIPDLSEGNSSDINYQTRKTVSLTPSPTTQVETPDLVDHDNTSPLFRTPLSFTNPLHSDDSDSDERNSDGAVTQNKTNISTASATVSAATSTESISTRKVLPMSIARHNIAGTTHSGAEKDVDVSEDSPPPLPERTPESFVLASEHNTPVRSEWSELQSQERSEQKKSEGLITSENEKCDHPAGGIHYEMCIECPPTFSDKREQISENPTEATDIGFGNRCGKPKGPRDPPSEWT
Assay: Inhibition of recombinant human PTP-PEST using p-nitrophenyl phosphate as substrate preincubated for 10 mins followed by substrate addition and measured every minute for 10 mins by UV-VIS spectrophotometric analysis
pIC50: −log10 of the molar value.

Task: Report measured pIC50; entry is Cc1ccc(NC(=S)N/N=C/c2ccc(-c3cc(C(F)(F)F)ccc3Cl)o2)cc1
Output: < 4.30

Task: Report measured pIC50; entry is FC(F)(F)c1ccc(Cl)c(-c2ccc(/C=N/NC(=S)Nc3cccc4ccccc34)o2)c1
Output: 4.80

Task: Report measured pIC50; entry is O=[N+]([O-])c1ccc(/C=N/NC(=S)Nc2cccc3ccccc23)cc1
Output: < 4.30

Task: Report measured pIC50; entry is S=C(N/N=C/c1ccc(-c2ccccc2)cc1)Nc1cccc2ccccc12
Output: < 4.30

Numbers sourced from ChEMBL document CHEMBL4261631.
